- System: U-87 MG
- EXPERIMENTAL_DETAILS: Cytotoxicity in human U87 cells assessed as reduction in cell viability incubated for 48 hrs by MTT assay
- Assay type: functional, cell-based, U-87MG ATCC
Where a name gives a salt, the structure may show the parent alone.
For each entry below, report its pIC50 value.
# log scale: pIC50 equals minus log10 of the concentration in mol/L

(Q) Tell us which pIC50 value is on record for COc1cccc2c1C(=O)c1c(O)c3c(c(O)c1C2=O)C[C@@](O)(C(=O)CO)C[C@@H]3O[C@H]1C[C@H](N)[C@H](O)[C@H](C)O1 [DOXORUBICIN HYDROCHLORIDE]
(A) 5.96

(Q) Tell us which pIC50 value is on record for CC(C)[C@@H]1CC[C@]2(C)C1=CC[C@]1(C)[C@H]3CC[C@@]4(C)O[C@H]([C@H]4O)[C@]3(C)[C@@H](O)C[C@H]12
(A) 4.79

----------
- Test system: U-87 MG
- EXPERIMENTAL_DETAILS: Cytotoxicity in human U87 cells assessed as reduction in cell viability incubated for 48 hrs by MTT assay
- Format: functional, cell-based, U-87MG ATCC
MEASUREMENT_NAME: IC50

(Q) Given C=C1CC[C@@H]2[C@@]3(C)CC=C4[C@H](C(C)C)CC[C@@]4(C)[C@@H]3C[C@H](O)[C@@]2(C)[C@H](O)[C@H]1O , report its IC50 on U-87 MG.
(A) > 40 µM

(Q) Given C=C1CC[C@@H]2[C@@]3(C)CC=C4[C@H](C(C)C)CC[C@@]4(C)[C@@H]3C[C@H](O)[C@@]2(C)[C@@H]2O[C@@H](c3ccc(O)cc3)O[C@@H]12 , report its IC50 on U-87 MG.
(A) > 40 µM

(Q) Given CC1=C[C@@H](O)[C@@]2(C)[C@H](CC1)[C@@]1(C)CC=C3[C@H](C(C)C)CC[C@@]3(C)[C@@H]1C[C@@H]2O , report its IC50 on U-87 MG.
(A) > 40 µM
